# SYSTEM UNDER TEST: hERG (KCNH2) (Homo sapiens)
# Sequence (Q12809 whole entry): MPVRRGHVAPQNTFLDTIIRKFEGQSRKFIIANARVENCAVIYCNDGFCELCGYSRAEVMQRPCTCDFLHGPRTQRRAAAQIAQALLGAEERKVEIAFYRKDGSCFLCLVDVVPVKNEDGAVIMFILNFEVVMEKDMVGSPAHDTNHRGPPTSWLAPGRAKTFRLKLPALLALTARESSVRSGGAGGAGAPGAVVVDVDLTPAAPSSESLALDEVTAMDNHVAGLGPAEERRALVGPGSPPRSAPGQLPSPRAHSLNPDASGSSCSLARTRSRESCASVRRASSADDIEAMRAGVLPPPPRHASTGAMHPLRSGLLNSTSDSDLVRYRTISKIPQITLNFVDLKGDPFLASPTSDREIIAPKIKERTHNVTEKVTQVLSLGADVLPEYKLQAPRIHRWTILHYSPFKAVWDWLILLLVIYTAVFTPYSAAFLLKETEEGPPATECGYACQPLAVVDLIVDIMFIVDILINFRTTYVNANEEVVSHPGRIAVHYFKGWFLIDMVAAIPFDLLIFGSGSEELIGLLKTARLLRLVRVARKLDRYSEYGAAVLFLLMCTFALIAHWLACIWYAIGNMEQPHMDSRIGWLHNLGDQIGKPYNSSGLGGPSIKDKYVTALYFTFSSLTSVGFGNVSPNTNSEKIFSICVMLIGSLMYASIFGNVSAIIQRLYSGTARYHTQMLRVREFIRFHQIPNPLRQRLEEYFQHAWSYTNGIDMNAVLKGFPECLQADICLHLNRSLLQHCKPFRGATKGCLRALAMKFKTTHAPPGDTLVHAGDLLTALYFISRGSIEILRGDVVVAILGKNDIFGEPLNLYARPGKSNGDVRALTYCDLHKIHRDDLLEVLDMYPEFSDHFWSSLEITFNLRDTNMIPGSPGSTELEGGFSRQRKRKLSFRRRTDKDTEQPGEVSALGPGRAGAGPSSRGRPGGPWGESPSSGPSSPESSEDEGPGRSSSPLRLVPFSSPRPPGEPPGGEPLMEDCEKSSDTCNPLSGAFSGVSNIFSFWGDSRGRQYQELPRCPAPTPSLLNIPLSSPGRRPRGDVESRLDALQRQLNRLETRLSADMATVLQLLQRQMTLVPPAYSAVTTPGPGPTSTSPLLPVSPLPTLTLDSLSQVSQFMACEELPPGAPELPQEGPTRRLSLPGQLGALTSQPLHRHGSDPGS
# ASSAY OVERVIEW: Inhibition of hERG channel current in HEK293 cells at 1 uM
# Type: toxicity, cell-based
# CONDITIONS: HEK293 cells that express hERG
PARAMETER: inhibition at 1 µM (%)
Write it as a number; the unit % goes unstated.

Give inhibition at 1 µM for CC(C)c1nnc2ccc(-c3ocnc3-c3cc(F)ccc3F)cn12 tested on hERG (KCNH2) (Homo sapiens). 0

###

# ASSAY OVERVIEW: Plasma clearance in monkey
# Format: ADME, organism-based, Macaca mulatta
# CONDITIONS: rhesus monkey
PARAMETER: clearance (mL/min/kg)
Write it as a number; the unit mL/min/kg goes unstated.

These recorded examples may help you get a feel for the data.
CC(C)c1nnc2ccc(-c3ocnc3-c3ccc(F)cc3)cn12
16
CC(C)c1nnc2ccc(-c3ocnc3-c3cccc(Cl)c3)cn12
15
CC(C)c1nnc2ccc(-c3ocnc3-c3ccc(F)c(Cl)c3)cn12
5.7

Note down clearance recorded for CC(C)(C)c1nnc2ccc(-c3ocnc3-c3cc(F)c(F)cc3F)cn12 3.4
